Assay: Pharmacokinetic parameters in mice
Assay type: in vivo
Details: male, mouse, plasma; Balb/c mice; oral 20 mg/kg
Procedure: The compound plasma concentration at any given time point was determined by Liquid Chromatography/Mass Spectrometry (LC/MS/MS). Pharmacokinetic parameters were calculated by non-compartmental regression analysis using Winnonlin 4.0 software (Pharsight, Mountain View, Calif., USA).
measurementType: Tmax
Be sure to follow the number with its unit.

-- ask Consider the molecule shown here: O=C(NCCO)c1cccc(-c2cc(Nc3ccc(OC(F)(F)F)cc3)ncn2)c1 [GNF-5] What is its recorded Tmax?
-- reply 30 min

* * *

Experiment: Pharmacokinetic parameters in mice
Assay type: in vivo
Settings: male, Balb/c, mouse, plasma, po, 20 mg/kg, oral 20 mg/kg, Balb-C mice; read-out: concentration after 7 hours
measurementType: concentration at 7 h (nM)
Report as a plain number; the unit nM is understood.

-- ask Consider the compound shown here: O=C(NCCO)c1cccc(-c2cc(Nc3ccc(OC(F)(F)F)cc3)ncn2)c1 What is its recorded concentration at 7 h?
-- reply 630

* * *

Experiment: Pharmacokinetic parameters in mice
Type: in vivo
Details: male, mouse, plasma, oral; Balb/c mice; 5 mg/kg intravenously or 20 mg/kg orally, route not given; read-out: AUC_inf (min * ug/mL) (converted)
measurementType: AUC(0-inf)
Be sure to follow the number with its unit.

-- ask Consider the compound shown here: O=C(NCCO)c1cccc(-c2cc(Nc3ccc(OC(F)(F)F)cc3)ncn2)c1 What is its recorded AUC(0-inf)?
-- reply 4870 ng·h/mL

* * *

Assay: Pharmacokinetic parameters in mice
Type: in vivo
Settings: male, Balb/c, mouse, plasma, po, 20 mg/kg, Balb/c mice; oral 20 mg/kg, 7 hours; read-out: Clast
measurementType: concentration at 7 h

-- ask Consider the compound shown here: O=C(NCCO)c1cccc(-c2cc(Nc3ccc(OC(F)(F)F)cc3)ncn2)c1 What is its recorded concentration at 7 h?
-- reply 636 nM

* * *

Test: Pharmacokinetic parameters in mice
Type: in vivo
Settings: male, mouse, plasma; oral 20 mg/kg, Balb-C mice; read-out: terminal half-life (converted)
measurementType: half-life (h)
Report as a plain number; the unit h is understood.

-- ask Consider the compound shown here: O=C(NCCO)c1cccc(-c2cc(Nc3ccc(OC(F)(F)F)cc3)ncn2)c1 [GNF-5] What is its recorded half-life?
-- reply 2.3

* * *

Assay: Pharmacokinetic parameters in mice
Assay type: in vivo
Conditions: male, Balb/c, mouse, plasma, po, 20 mg/kg, Balb/c mice; 20 mg/kg oral vs 5 mg/kg intravenous; read-out: F (%)
measurementType: bioavailability
Be sure to follow the number with its unit.

-- ask Consider the molecule shown here: O=C(NCCO)c1cccc(-c2cc(Nc3ccc(OC(F)(F)F)cc3)ncn2)c1 [GNF-5] What is its recorded bioavailability?
-- reply 44.8%
